- System: HLA-A*24 (human)
- Assay procedure: UV peptide exchange ELISA
Items are presented alongside their recorded peptide exchange yield.

Solved cases (3 shown):
1) MYPDLSELLM	> 75%
2) KYSTTFFMV	20 to 50%
3) IYHSHHPTL	50 to 75%

Moving on to the next binder.
Which peptide exchange yield is listed for KYVKDFHKF ?
> 75%
